Measured Emax of individual entries
target: TRAP1 enzyme (Homo sapiens); assay: Malachite green phosphate assay of TRAP1 ATPase activity; format: biochemical; details: read-out: Malachite Green Fluor DRC: Mean Emax

The cases that follow already have their Emax on record.
- compound: "O=C(Nc1cccc(S(=O)(=O)N2CCOc3cc(Cl)ccc32)c1)c1ncco1"
  system: "TRAP1 enzyme (Homo sapiens)"
  recorded result: "200 to 300%"
- compound: "CCc1ccc(NC(=O)c2nnc(-c3ccccc3)[nH]2)cc1S(=O)(=O)Nc1ccc(Cl)cc1"
  system: "TRAP1 enzyme (Homo sapiens)"
  recorded result: "200 to 300%"

I looked up COc1ccc(NC(=O)c2ncc(-c3ccccc3)s2)cc1S(=O)(=O)Nc1c(C)cccc1C and its Emax for TRAP1 enzyme (Homo sapiens) was 123 to 159%

I looked up Cc1ccc(NS(=O)(=O)c2cccc(NC(=O)c3cnc(C(F)(F)F)[nH]3)c2)cc1 and its Emax for TRAP1 enzyme (Homo sapiens) was 160 to 199%

###

biological target: TRAP1 enzyme (Homo sapiens, UniProt Q12931); test: ADP Glo assay of TRAP1 ATPase activity; format: biochemical; conditions: TRAP1 ATPase activation, 150 nM Trap1, 20 μM ATP, geometric mean; read-out: ADP GLO DRC: GeoMean EC50
Sequence (Q12931 60-704): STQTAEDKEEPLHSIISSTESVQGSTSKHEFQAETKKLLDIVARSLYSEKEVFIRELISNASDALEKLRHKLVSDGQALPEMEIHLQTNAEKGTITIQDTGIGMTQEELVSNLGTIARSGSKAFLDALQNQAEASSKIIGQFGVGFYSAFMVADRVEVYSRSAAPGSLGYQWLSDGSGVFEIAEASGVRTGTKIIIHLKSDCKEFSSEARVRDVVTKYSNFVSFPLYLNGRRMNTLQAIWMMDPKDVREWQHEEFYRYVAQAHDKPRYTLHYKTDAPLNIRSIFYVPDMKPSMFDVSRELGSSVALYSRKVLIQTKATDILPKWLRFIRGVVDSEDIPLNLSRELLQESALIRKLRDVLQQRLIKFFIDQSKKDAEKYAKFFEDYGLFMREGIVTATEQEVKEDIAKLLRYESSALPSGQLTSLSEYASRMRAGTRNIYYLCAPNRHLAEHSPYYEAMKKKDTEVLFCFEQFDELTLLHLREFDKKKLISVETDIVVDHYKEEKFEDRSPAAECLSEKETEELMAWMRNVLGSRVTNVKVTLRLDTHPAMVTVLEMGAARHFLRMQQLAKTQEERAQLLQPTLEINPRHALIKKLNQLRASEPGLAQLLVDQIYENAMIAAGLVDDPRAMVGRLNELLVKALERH
pEC50: −log10 of the molar value.
readout name: pEC50

The cases that follow already have their pEC50 on record.
- compound: "COc1ccc(NC(=O)c2ncn(Cc3ccccc3)n2)cc1S(=O)(=O)Nc1c(C)cccc1C"
  pEC50: "4.70 to 5.00"
- compound: "COc1ccc(NC(=O)c2ccc3c(c2)CCCO3)cc1S(=O)(=O)Nc1c(C)cccc1C"
  pEC50: "> 5.00"
- compound: "COc1ccc(NC(=O)c2ccc(N3CCCC3)c(F)c2)cc1S(=O)(=O)Nc1c(C)cccc1C"
  pEC50: "> 5.00"

I looked up COc1ccc(NC(=O)c2cccc(-c3cnccn3)c2)cc1S(=O)(=O)Nc1c(C)cccc1C and its pEC50 for TRAP1 enzyme (Homo sapiens, UniProt Q12931) was 4.70 to 5.00

I looked up COc1ccc(NC(=O)c2cccc3ccn(C)c23)cc1S(=O)(=O)Nc1c(C)cccc1C and its pEC50 for TRAP1 enzyme (Homo sapiens, UniProt Q12931) was > 5.00

I looked up COc1ccc(NC(=O)c2ncc(-c3ccccc3)o2)cc1S(=O)(=O)Nc1sc(C)c(C)c1C#N and its pEC50 for TRAP1 enzyme (Homo sapiens, UniProt Q12931) was 4.70 to 5.00

I looked up O=C(Nc1ccc(F)c(S(=O)(=O)Nc2ccc(Cl)cc2)c1)c1cnc(Cl)cc1Cl and its pEC50 for TRAP1 enzyme (Homo sapiens, UniProt Q12931) was 4.70 to 5.00

I looked up COc1ccc(NC(=O)c2cc(C)n(C(F)F)n2)cc1S(=O)(=O)Nc1c(C)cccc1C and its pEC50 for TRAP1 enzyme (Homo sapiens, UniProt Q12931) was 4.70 to 5.00

I looked up CCn1nc(C(C)C)cc1C(=O)Nc1ccc(OC)c(S(=O)(=O)Nc2c(C)cccc2C)c1 and its pEC50 for TRAP1 enzyme (Homo sapiens, UniProt Q12931) was > 5.00

I looked up COc1ccc(NC(=O)c2ncc(OC(F)F)cc2Cl)cc1S(=O)(=O)Nc1c(C)cccc1C and its pEC50 for TRAP1 enzyme (Homo sapiens, UniProt Q12931) was 4.00 to 4.70

I looked up COc1ccc(NC(=O)c2ccc(Cn3cc(Cl)cn3)cc2)cc1S(=O)(=O)Nc1c(C)cccc1C and its pEC50 for TRAP1 enzyme (Homo sapiens, UniProt Q12931) was > 5.00

I looked up COc1ccc(NC(=O)c2cnn3cccnc23)cc1S(=O)(=O)Nc1c(C)cccc1C and its pEC50 for TRAP1 enzyme (Homo sapiens, UniProt Q12931) was 4.00 to 4.70

I looked up COc1ccc(NC(=O)c2cnn(-c3ccc(Cl)cc3)c2C)cc1S(=O)(=O)Nc1c(C)cccc1C and its pEC50 for TRAP1 enzyme (Homo sapiens, UniProt Q12931) was > 5.00

I looked up COc1ccc(NC(=O)c2cccc3c2OC(C)(C)CC3)cc1S(=O)(=O)Nc1c(C)cccc1C and its pEC50 for TRAP1 enzyme (Homo sapiens, UniProt Q12931) was > 5.00

I looked up COc1ccc(NC(=O)c2ncc(-c3ccccc3)o2)cc1S(=O)(=O)Nc1cccc(C(F)(F)F)n1 and its pEC50 for TRAP1 enzyme (Homo sapiens, UniProt Q12931) was 4.70 to 5.00

I looked up COc1ccc(NC(=O)c2cc(C#N)ccc2Br)cc1S(=O)(=O)Nc1c(C)cccc1C and its pEC50 for TRAP1 enzyme (Homo sapiens, UniProt Q12931) was 4.00 to 4.70

###

target: TRAP1 enzyme (Homo sapiens); test: ADP Glo assay of TRAP1 ATPase activity; format: biochemical; conditions: TRAP1 ATPase activation, 150 nM Trap1, 20 μM ATP, geometric mean; read-out: ADP GLO DRC: GeoMean EC50
Measured EC50 of individual entries

The cases that follow already have their EC50 on record.
- compound: "COc1ccc(NC(=O)c2cc(F)ccc2OC(F)(F)F)cc1S(=O)(=O)Nc1c(C)cccc1C [Compound 1092]"
  readout name: "EC50"
  recorded result: "< 10 µM"
- compound: "COc1ccc(NC(=O)c2cc(N3CCCC3)ccn2)cc1S(=O)(=O)Nc1c(C)cccc1C [Compound 1077]"
  readout name: "EC50"
  recorded result: "< 10 µM"

Short answer for COc1ccc(NC(=O)c2ccn(-c3ccccc3)n2)cc1S(=O)(=O)Nc1c(C)cccc1C [Compound 1071] : EC50 was 10 to 20 µM

Short answer for COc1ccc(NC(=O)c2cc(C)cc(F)c2F)cc1S(=O)(=O)Nc1c(C)cccc1C [Compound 1164] : EC50 was < 10 µM

Short answer for COc1ccc(NC(=O)c2cccc3ccoc23)cc1S(=O)(=O)Nc1c(C)cccc1C [Compound 1094] : EC50 was < 10 µM

Short answer for COc1ccc(NC(=O)c2cccc3nccnc23)cc1S(=O)(=O)Nc1c(C)cccc1C [Compound 1251] : EC50 was 10 to 20 µM

Short answer for COc1ccc(NC(=O)c2ncn(C(C)C)n2)cc1S(=O)(=O)Nc1c(C)cccc1C [Compound 1069] : EC50 was 20 to 100 µM

Short answer for CCS(=O)(=O)c1ccc(OC)c(C(=O)Nc2ccc(F)c(S(=O)(=O)Nc3ccc(Cl)cc3)c2)c1 [Compound 822] : EC50 was 10 to 20 µM

###

molecular target: TRAP1 enzyme (Homo sapiens, UniProt Q12931); experiment: Malachite green phosphate assay of TRAP1 ATPase activity; type: biochemical; conditions: TRAP1 ATPase activation, 150 nM Trap1, 20 μM ATP, geometric mean; read-out: Malachite Green Fluor DRC: GeoMean EC50
readout name: EC50

- compound: "COc1ccc(NC(=O)c2cnc[nH]2)cc1S(=O)(=O)N(CCCCCCN)c1ccc(Br)cc1"
  EC50: "< 10 µM"
- compound: "COc1ccc(NC(=O)c2cnc(-c3ccccc3)[nH]2)cc1S(=O)(=O)N(CCCCCCO)c1ccc(Br)cc1"
  EC50: "10 to 20 µM"
- compound: "COc1ccc(NC(=O)c2ccc3cnccc3n2)cc1S(=O)(=O)Nc1c(C)cccc1C"
  EC50: "10 to 20 µM"

API: the following record is the query input.
Short answer for O=C(Nc1cccc(S(=O)(=O)Nc2ccc(Br)cc2)c1)c1cnc(C(F)(F)F)[nH]1 : EC50 was 10 to 20 µM

###

biological target: TRAP1 enzyme (Homo sapiens, UniProt Q12931); assay: ADP Glo assay of TRAP1 ATPase activity; format: biochemical; settings: TRAP1 ATPase activation, 150 nM Trap1, 20 μM ATP, geometric mean; read-out: ADP GLO DRC: GeoMean EC50
readout name: EC50

Short answer for COc1ccc(NC(=O)c2cn(Cc3ccccc3)nn2)cc1S(=O)(=O)Nc1c(C)cccc1C : EC50 was < 10 µM

Short answer for COc1ccc(NC(=O)c2nc3c(C)cccc3s2)cc1S(=O)(=O)Nc1c(C)cccc1C : EC50 was < 10 µM

Short answer for COc1ccc(NC(=O)c2ccc3ncoc3c2)cc1S(=O)(=O)Nc1c(C)cccc1C : EC50 was 20 to 100 µM

Short answer for CCOc1ccsc1C(=O)Nc1ccc(F)c(S(=O)(=O)Nc2ccc(Cl)cc2)c1 : EC50 was 20 to 100 µM

###

Measured Emax of individual entries
target: TRAP1 enzyme (Homo sapiens); test: Malachite green phosphate assay of TRAP1 ATPase activity; type: biochemical; details: read-out: Malachite Green Fluor DRC: Mean Emax

- compound: "O=C(Nc1cccc(S(=O)(=O)Nc2ccc(Br)cc2)c1)c1cnc(C(F)(F)F)[nH]1 [Compound 228]"
  system: "TRAP1 enzyme (Homo sapiens)"
  Emax: "200 to 300%"
- compound: "COc1ccc(NC(=O)c2cnc(-c3ccccc3)[nH]2)cc1S(=O)(=O)N1Cc2ccc(F)cc2C1 [Compound 200]"
  system: "TRAP1 enzyme (Homo sapiens)"
  Emax: "160 to 199%"
- compound: "COc1ccc(NC(=O)c2cnccc2C)cc1S(=O)(=O)Nc1ccccc1C [Compound 64]"
  system: "TRAP1 enzyme (Homo sapiens)"
  Emax: "160 to 199%"
- compound: "O=C(Nc1cccc(S(=O)(=O)Nc2ccc(Br)cc2)c1)c1cnc(-c2ccccc2)[nH]1 [Compound 169]"
  system: "TRAP1 enzyme (Homo sapiens)"
  Emax: "200 to 300%"
- compound: "CCc1ccc(NC(=O)c2ncc(-c3ccccc3)o2)cc1S(=O)(=O)Nc1ccc(Cl)nc1 [Compound 548]"
  system: "TRAP1 enzyme (Homo sapiens)"
  Emax: "123 to 159%"
- compound: "COc1ccc(NC(=O)c2cnc(C(F)(F)F)[nH]2)cc1S(=O)(=O)N(CCCCCC[P+](c1ccccc1)(c1ccccc1)c1ccccc1)c1ccc(Br)cc1 [Compound 260]"
  system: "TRAP1 enzyme (Homo sapiens)"
  Emax: "160 to 199%"

I looked up COc1ccc(NC(=O)c2nnc(-c3ccccc3)s2)cc1S(=O)(=O)Nc1ccc(Cl)cc1 [Compound 500] and its Emax for TRAP1 enzyme (Homo sapiens) was 200 to 300%

I looked up COc1ccc(NC(=O)c2cnc(C(F)(F)F)[nH]2)cc1S(=O)(=O)N(CCCCCN1CCOCC1)c1ccc(Br)cc1 [Compound 433] and its Emax for TRAP1 enzyme (Homo sapiens) was 123 to 159%

I looked up COc1ccc(NC(=O)c2ncco2)cc1S(=O)(=O)N1CCOCC1 [Compound 309] and its Emax for TRAP1 enzyme (Homo sapiens) was 123 to 159%

I looked up CC(=O)c1c(C)[nH]c(C(=O)Nc2cccc(S(=O)(=O)N3CCCC3)c2)c1C [Compound 148] and its Emax for TRAP1 enzyme (Homo sapiens) was 200 to 300%

I looked up NCCCCCCOc1ccc(NC(=O)c2cnc[nH]2)cc1S(=O)(=O)Nc1ccc(Br)cc1 [Compound 356] and its Emax for TRAP1 enzyme (Homo sapiens) was 200 to 300%

I looked up CCOC(=O)Cc1ccc(NC(=O)c2ncco2)cc1S(=O)(=O)Nc1ccc(Br)cc1 [Compound 332] and its Emax for TRAP1 enzyme (Homo sapiens) was 200 to 300%

I looked up COc1ccc(NC(=O)c2cnc(C(F)(F)F)[nH]2)cc1S(=O)(=O)Nc1ccc(F)cc1C [Compound 348] and its Emax for TRAP1 enzyme (Homo sapiens) was 200 to 300%

I looked up COc1ccc(-c2ncc(C(=O)Nc3ccc(OC)c(S(=O)(=O)Nc4ccc(Br)cc4)c3)[nH]2)cc1 [Compound 417] and its Emax for TRAP1 enzyme (Homo sapiens) was 123 to 159%

I looked up CCOC(=O)/C=C/c1ccc(NC(=O)c2ncc(-c3ccccc3)o2)cc1S(=O)(=O)Nc1ccc(Cl)cc1 [Compound 634] and its Emax for TRAP1 enzyme (Homo sapiens) was 123 to 159%
